- Target Desc: T1, mouse IGFBP7 recombinant protein (mouse, UniProt Q61581 26-281, biotinylated with EZ-LINK NHS-PEG4 biotin in the BLI assays (sites not given))
- T1 chain: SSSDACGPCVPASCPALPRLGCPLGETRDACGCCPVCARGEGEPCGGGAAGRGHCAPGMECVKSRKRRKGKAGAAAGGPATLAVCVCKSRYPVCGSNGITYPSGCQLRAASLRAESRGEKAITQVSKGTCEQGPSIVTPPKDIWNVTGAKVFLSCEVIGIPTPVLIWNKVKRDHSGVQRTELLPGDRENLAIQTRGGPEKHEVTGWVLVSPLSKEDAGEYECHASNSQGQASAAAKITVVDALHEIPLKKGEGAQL
- Assay Overview: BLI
Parameter pKd: see the listing below.
# pKd is unitless: minus log10 of the molar concentration; print number only

Task: Returns the measured pKd for the input binder. Input: bispecific anti-IGFBP7 nanobody Fc-fusion construct A1D4-mIgG2a (bispecific antibody) VQLQESGGGLVQAGGSLRLSCAASGSLFAIDKWGWYRQVAGNERELVAWRYSPVSINYGDSVKGRFTVSGDSSRKRVYLQMNSLKPDDTAVYRCAAVISGAWYWGQGTQVTVSSVQLQESGGGLVQTGGSLRLSCAASGRSFTFSSYAMGWFRHAPGKEREFLTAITWSGDYTYYTDSVKGRSTISRDNAKNTVYLQLNNLKPEDTAVYYCAAKFSQVSAFFATVSEYEYWGQGTQVTVSS
Output: 8.97

***
Task: Returns the measured pKd for the input binder. Input: A1-mIgG1 nanobody Fc-fusion (Fc fusion, VHH fused with mIgG1 Fc fragment, expressed in Expi293 cells; also called monospecific A1-mIgG1; not shown: mouse IgG1 Fc fragment (mIgG1 Fc)) VQLQESGGGLVQAGGSLRLSCAASGSLFAIDKWGWYRQVAGNERELVAWRYSPVSINYGDSVKGRFTVSGDSSRKRVYLQMNSLKPDDTAVYRCAAVISGAWYWGQGTQVTVSS
Output: 7.59

Task: Ok, now A1-mIgG2a nanobody Fc-fusion (Fc fusion, VHH fused with mIgG2a Fc fragment, expressed in Expi293 cells, Protein G purified; also called monoclonal A1-mIgG2a; monospecific A1-mIgG2a; not shown: mouse IgG2a Fc fragment (mIgG2a Fc)) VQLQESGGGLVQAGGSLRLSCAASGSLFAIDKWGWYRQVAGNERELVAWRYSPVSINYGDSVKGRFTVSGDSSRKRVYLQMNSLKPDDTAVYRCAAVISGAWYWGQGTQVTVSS
Output: 7.59

Task: Ok, now bispecific anti-IGFBP7 nanobody Fc-fusion construct A1-mIgG2a-D4 (bispecific antibody, V domains shown, also called A1-mIgG2a-D4-2; not shown: mouse IgG2a Fc fragment (mIgG2a Fc)) V domain 1: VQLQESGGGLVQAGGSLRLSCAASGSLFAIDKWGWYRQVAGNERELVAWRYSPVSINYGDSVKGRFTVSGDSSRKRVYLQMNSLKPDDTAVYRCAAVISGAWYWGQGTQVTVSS V domain 2: VQLQESGGGLVQTGGSLRLSCAASGRSFTFSSYAMGWFRHAPGKEREFLTAITWSGDYTYYTDSVKGRSTISRDNAKNTVYLQLNNLKPEDTAVYYCAAKFSQVSAFFATVSEYEYWGQGTQVTVSS
Output: 8.76

Task: Ok, now D4-mIgG2a nanobody Fc-fusion (Fc fusion, VHH fused with mIgG2a Fc fragment, expressed in Expi293 cells; also called monospecific D4-mIgG2a; not shown: mouse IgG2a Fc fragment (mIgG2a Fc)) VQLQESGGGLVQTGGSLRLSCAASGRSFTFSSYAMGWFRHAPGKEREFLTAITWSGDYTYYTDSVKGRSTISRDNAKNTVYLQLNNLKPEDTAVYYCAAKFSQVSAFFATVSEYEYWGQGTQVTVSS
Output: 7.99

Data credit: patent US20240150466A1
